system: 772245-204-R-J1-PDC complex spheroid growth; test: Anticancer human tumor 772245-204-R-J1-PDC patient-derived rhabdomyosarcoma cell line growth inhibition [Asc]; details: second compound 1 µM; first compound 0.01 µM; stronger effect = lower value
Metric Name: viability, T/C (%)
Numbers only, in %.

Below: 5 compounds and their reported viability, T/C.
Compound | Metric Name | Value
NC1CCC(NC2CC2c2ccccc2)CC1 (configuration not stated) + CNC(C)C(=O)NC1CN(S(=O)(=O)c2cccc(S(=O)(=O)N3CCC4CCC(C(=O)NC(c5ccccc5)c5ccccc5)N4C(=O)C(NC(=O)C(C)NC)C3)c2)CCC2CCC(C(=O)NC(c3ccccc3)c3ccccc3)N2C1=O | viability, T/C | 86.6
CCN1CCN(Cc2ccc(Nc3ncc(F)c(-c4cc(F)c5nc(C)n(C(C)C)c5c4)n3)nc2)CC1 + Cc1c(S(C)(=O)=O)c(-c2cc(F)cc(N3CCN(c4ccc(NS(=O)(=O)c5ccc(NC(CCN6CCC(C(=O)OCCCP(=O)(O)O)CC6)CSc6ccccc6)c(S(=O)(=O)C(F)(F)F)c5)cc4)CC3)c2)c(-c2ccc(Cl)cc2)n1C(C)C | viability, T/C | 52.9
COc1c(OCCCN2CCOCC2)ccc2c3n(c(=NC(=O)c4cnc(N)nc4)nc12)CCN3 + CNC(C)C(=O)NC1CN(S(=O)(=O)c2cccc(S(=O)(=O)N3CCC4CCC(C(=O)NC(c5ccccc5)c5ccccc5)N4C(=O)C(NC(=O)C(C)NC)C3)c2)CCC2CCC(C(=O)NC(c3ccccc3)c3ccccc3)N2C1=O | viability, T/C | 96.6
O=C(c1ccc(F)c(F)c1Nc1ccc(I)cc1F)N1CC(O)([C@@H]2CCCCN2)C1 + CNC(C)C(=O)NC1CN(S(=O)(=O)c2cccc(S(=O)(=O)N3CCC4CCC(C(=O)NC(c5ccccc5)c5ccccc5)N4C(=O)C(NC(=O)C(C)NC)C3)c2)CCC2CCC(C(=O)NC(c3ccccc3)c3ccccc3)N2C1=O | viability, T/C | 89.7
Cn1ncnc1[C@H]1c2n[nH]c(=O)c3cc(F)cc(c23)N[C@@H]1c1ccc(F)cc1 + Cc1c(S(C)(=O)=O)c(-c2cc(F)cc(N3CCN(c4ccc(NS(=O)(=O)c5ccc(NC(CCN6CCC(C(=O)OCCCP(=O)(O)O)CC6)CSc6ccccc6)c(S(=O)(=O)C(F)(F)F)c5)cc4)CC3)c2)c(-c2ccc(Cl)cc2)n1C(C)C | viability, T/C | 15.5

Go through the items and report each one's viability, T/C.
1. CCN1CCN(Cc2ccc(Nc3ncc(F)c(-c4cc(F)c5nc(C)n(C(C)C)c5c4)n3)nc2)CC1 + CNC(C)C(=O)NC1CN(S(=O)(=O)c2cccc(S(=O)(=O)N3CCC4CCC(C(=O)NC(c5ccccc5)c5ccccc5)N4C(=O)C(NC(=O)C(C)NC)C3)c2)CCC2CCC(C(=O)NC(c3ccccc3)c3ccccc3)N2C1=O
2. COc1c(OCCCN2CCOCC2)ccc2c3n(c(=NC(=O)c4cnc(N)nc4)nc12)CCN3 + Cc1c(S(C)(=O)=O)c(-c2cc(F)cc(N3CCN(c4ccc(NS(=O)(=O)c5ccc(NC(CCN6CCC(C(=O)OCCCP(=O)(O)O)CC6)CSc6ccccc6)c(S(=O)(=O)C(F)(F)F)c5)cc4)CC3)c2)c(-c2ccc(Cl)cc2)n1C(C)C

Result:
1. 94.3
2. 59.9

====

Record form. Attribute: viability, T/C. Fill in for each entry.
test system: 772245-204-R-J1-PDC complex spheroid growth; test: Anticancer human tumor 772245-204-R-J1-PDC cell line growth inhibition [Asc]; conditions: second compound 1 µM; first compound 0.0949 µM; stronger effect = lower value;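 also: compound exposure lasted seven days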;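 as to viability, T/C: 100% = DMSO vehicle control viability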
Answers are plain numbers, in %.

Go through the items and report each one's viability, T/C.
1. NC(=O)C(=Cn1cnc(-c2cc(C(F)(F)F)cc(C(F)(F)F)c2)n1)c1cncnc1 + CNC(C)C(=O)NC1CN(S(=O)(=O)c2cccc(S(=O)(=O)N3CCC4CCC(C(=O)NC(c5ccccc5)c5ccccc5)N4C(=O)C(NC(=O)C(C)NC)C3)c2)CCC2CCC(C(=O)NC(c3ccccc3)c3ccccc3)N2C1=O
2. CCN1C(C(=O)NC23CCC(C(=O)O)(CC2)CC3)C(c2cccc(Cl)c2F)C2(C(=O)Nc3cc(Cl)ccc32)C12CCCCC2 (stereo unspecified) + Cc1c(S(C)(=O)=O)c(-c2cc(F)cc(N3CCN(c4ccc(NS(=O)(=O)c5ccc(NC(CCN6CCC(C(=O)OCCCP(=O)(O)O)CC6)CSc6ccccc6)c(S(=O)(=O)C(F)(F)F)c5)cc4)CC3)c2)c(-c2ccc(Cl)cc2)n1C(C)C
3. NC(=O)C(=Cn1cnc(-c2cc(C(F)(F)F)cc(C(F)(F)F)c2)n1)c1cncnc1 + Cc1c(S(C)(=O)=O)c(-c2cc(F)cc(N3CCN(c4ccc(NS(=O)(=O)c5ccc(NC(CCN6CCC(C(=O)OCCCP(=O)(O)O)CC6)CSc6ccccc6)c(S(=O)(=O)C(F)(F)F)c5)cc4)CC3)c2)c(-c2ccc(Cl)cc2)n1C(C)C

Result:
78.3
38
4.25

Go through the items and report each one's viability, T/C.
1. CCN1C(C(=O)NC23CCC(C(=O)O)(CC2)CC3)C(c2cccc(Cl)c2F)C2(C(=O)Nc3cc(Cl)ccc32)C12CCCCC2 (stereo unspecified) + CNC(C)C(=O)NC1CN(S(=O)(=O)c2cccc(S(=O)(=O)N3CCC4CCC(C(=O)NC(c5ccccc5)c5ccccc5)N4C(=O)C(NC(=O)C(C)NC)C3)c2)CCC2CCC(C(=O)NC(c3ccccc3)c3ccccc3)N2C1=O
2. Cc1nc(N2CCC3(CC2)COC(C)C3N)c(CO)nc1Sc1ccnc(N)c1Cl (stereo unspecified) + CNC(C)C(=O)NC1CN(S(=O)(=O)c2cccc(S(=O)(=O)N3CCC4CCC(C(=O)NC(c5ccccc5)c5ccccc5)N4C(=O)C(NC(=O)C(C)NC)C3)c2)CCC2CCC(C(=O)NC(c3ccccc3)c3ccccc3)N2C1=O
3. Cc1nc(N2CCC3(CC2)COC(C)C3N)c(CO)nc1Sc1ccnc(N)c1Cl (stereo unspecified) + Cc1c(S(C)(=O)=O)c(-c2cc(F)cc(N3CCN(c4ccc(NS(=O)(=O)c5ccc(NC(CCN6CCC(C(=O)OCCCP(=O)(O)O)CC6)CSc6ccccc6)c(S(=O)(=O)C(F)(F)F)c5)cc4)CC3)c2)c(-c2ccc(Cl)cc2)n1C(C)C

Result:
1: 96.2; 2: 104; 3: 68.6

====

system: 772245-204-R-J1-PDC complex spheroid growth; experiment: Anticancer human tumor 772245-204-R-J1-PDC cell line growth inhibition [Asc]; conditions: compound alone; run of 10/11/2022;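 also: compound exposure lasted seven days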
pIC50: −log10 of the molar value.
Metric Name: pIC50

Query: State, for 772245-204-R-J1-PDC complex spheroid growth, measured pIC50 of the compound listed here: CCN1C(C(=O)NC23CCC(C(=O)O)(CC2)CC3)C(c2cccc(Cl)c2F)C2(C(=O)Nc3cc(Cl)ccc32)C12CCCCC2 (stereo unspecified)
Result: < 5.52

====

Record form. Attribute: viability, T/C. Fill in for each entry.
test system: 772245-204-R-J1-PDC complex spheroid growth; experiment: Anticancer human tumor 772245-204-R-J1-PDC cell line growth inhibition [Asc]; conditions: second compound 3.16 µM; first compound 0.01 µM; stronger effect = lower value;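 also: compound exposure lasted seven days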;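 as to viability, T/C: 100% = DMSO vehicle control viability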
One number for each entry, in %.

Molecule | Value
CNC(C)C(=O)NC1CN(S(=O)(=O)c2cccc(S(=O)(=O)N3CCC4CCC(C(=O)NC(c5ccccc5)c5ccccc5)N4C(=O)C(NC(=O)C(C)NC)C3)c2)CCC2CCC(C(=O)NC(c3ccccc3)c3ccccc3)N2C1=O (configuration not stated) + Cc1c(S(C)(=O)=O)c(-c2cc(F)cc(N3CCN(c4ccc(NS(=O)(=O)c5ccc(NC(CCN6CCC(C(=O)OCCCP(=O)(O)O)CC6)CSc6ccccc6)c(S(=O)(=O)C(F)(F)F)c5)cc4)CC3)c2)c(-c2ccc(Cl)cc2)n1C(C)C | 32.8

Now consider a different molecule.
Query: Specify reported viability, T/C for the molecule shown: NC1CCC(NC2CC2c2ccccc2)CC1 (configuration not stated) + Cc1c(S(C)(=O)=O)c(-c2cc(F)cc(N3CCN(c4ccc(NS(=O)(=O)c5ccc(NC(CCN6CCC(C(=O)OCCCP(=O)(O)O)CC6)CSc6ccccc6)c(S(=O)(=O)C(F)(F)F)c5)cc4)CC3)c2)c(-c2ccc(Cl)cc2)n1C(C)C
Result: 18.7

====

Record form. Attribute: pIC50. Fill in for each entry.
tested on: 772245-204-R-J1-PDC complex spheroid growth; assay: Anticancer human tumor 772245-204-R-J1-PDC cell line growth inhibition [Asc]; conditions: curve of first compound; second compound 0.316 µM;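 also: compound exposure lasted seven days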
Give bare numbers, as −log10 of the molar value.

Below: 2 compounds and their reported pIC50.
Compound | pIC50
O=C(c1ccc(F)c(F)c1Nc1ccc(I)cc1F)N1CC(O)([C@@H]2CCCCN2)C1 + Cc1c(S(C)(=O)=O)c(-c2cc(F)cc(N3CCN(c4ccc(NS(=O)(=O)c5ccc(NC(CCN6CCC(C(=O)OCCCP(=O)(O)O)CC6)CSc6ccccc6)c(S(=O)(=O)C(F)(F)F)c5)cc4)CC3)c2)c(-c2ccc(Cl)cc2)n1C(C)C | 6.44
CCN1C(C(=O)NC23CCC(C(=O)O)(CC2)CC3)C(c2cccc(Cl)c2F)C2(C(=O)Nc3cc(Cl)ccc32)C12CCCCC2 (stereo not drawn) + Cc1c(S(C)(=O)=O)c(-c2cc(F)cc(N3CCN(c4ccc(NS(=O)(=O)c5ccc(NC(CCN6CCC(C(=O)OCCCP(=O)(O)O)CC6)CSc6ccccc6)c(S(=O)(=O)C(F)(F)F)c5)cc4)CC3)c2)c(-c2ccc(Cl)cc2)n1C(C)C | 6.39

Query: State, for 772245-204-R-J1-PDC complex spheroid growth, measured pIC50 of the compound listed here: O=C(c1cc(Cc2n[nH]c(=O)c3ccccc23)ccc1F)N1CCN(C(=O)C2CC2)CC1 + Cc1c(S(C)(=O)=O)c(-c2cc(F)cc(N3CCN(c4ccc(NS(=O)(=O)c5ccc(NC(CCN6CCC(C(=O)OCCCP(=O)(O)O)CC6)CSc6ccccc6)c(S(=O)(=O)C(F)(F)F)c5)cc4)CC3)c2)c(-c2ccc(Cl)cc2)n1C(C)C
Result: 6.36
